// data source = patent EP4707277A1

target: ITK (Homo sapiens); construct: purchased Signalchem I13-11G-10; assay: Inhibitory activity against ITK, ADP-Glo Kinase system (Promega); format: biochemical; conditions: Km ATP (ITK: 25uM); read-out: ITK IC50(nM) Km ATP
Reported IC50 by item:

C=CC(=O)N1CC=C(c2nc(Nc3ncc(C)s3)cc3c2ccn3C2CC2(F)F)CC1 (stereo not shown) tested on ITK (Homo sapiens) gave IC50: ≤ 20 nM

C=CC(=O)N1CC(Oc2nc(Nc3ncc(C)s3)cc3c2ccn3CC(C)C)C1 tested on ITK (Homo sapiens) gave IC50: 20 to 100 nM

More entries:
C=CC(=O)N1CC[C@H](Oc2nc(Nc3ncc(C)s3)cc3c2ccn3Cc2ccccc2)C1 tested on ITK (Homo sapiens) gave IC50: ≤ 20 nM

C=CC(=O)N1CC=C(c2nc(Nc3ncc(C)s3)cc3c2ccn3C)C1 tested on ITK (Homo sapiens) gave IC50: 100 to 500 nM

====

Reported IC50 by item:
biological target: ITK (Homo sapiens); construct: purchased Signalchem I13-11G-10; assay: Inhibitory activity against ITK, ADP-Glo Kinase system (Promega); assay type: biochemical; settings: 1mM ATP; read-out: ITK IC50(nM) 1mM ATP

Use the examples below as a reference point.
In plain terms, C=CC(=O)N1CC[C@@H](Oc2nc(Nc3ncc(C)s3)cc3c2ccn3CC(C)C)C1 (stereo in doubt) has a documented IC50 of > 500 nM

In plain terms, C=CC(=O)N1CC=C(c2nc(Nc3ncc(C)s3)cc3c2ccn3CC(F)(F)F)CC1 has a documented IC50 of 100 to 500 nM

In plain terms, C=CC(=O)N1CCC[C@@H]1COc1nc(Nc2ncc(C)s2)cc2c1ccn2CC(F)F has a documented IC50 of ≤ 20 nM

In plain terms, C=CC(=O)N1C[C@H](F)[C@H](Oc2nc(Nc3ncc(C)s3)cc3c2ccn3CC2CCCC2)C1 has a documented IC50 of ≤ 20 nM

In plain terms, C=CC(=O)N1CC[C@H](Oc2nc(Nc3ncc(C)s3)cc3c2ccn3CCF)C1 has a documented IC50 of ≤ 20 nM

More entries:
In plain terms, C=CC(=O)N1CC(Oc2nc(Nc3ncc(C)s3)cc3c2ccn3CC2CC2)C1 has a documented IC50 of ≤ 20 nM

In plain terms, C=CC(=O)N1C[C@@H](Oc2nc(Nc3ncc(C)s3)cc3c2ccn3C(C)C)C[C@H]1C has a documented IC50 of ≤ 20 nM

In plain terms, C=CC(=O)N1C[C@@H](Oc2nc(Nc3ncc(C)s3)cc3c2ccn3CC2CC2)C[C@H]1C has a documented IC50 of ≤ 20 nM

====

target: BTK (Homo sapiens); construct: purchased Signalchem B10-10H; experiment: Inhibitory activity against BTK, ADP-Glo Kinase system (Promega); type: biochemical; conditions: 1mM ATP; read-out: BTK IC50(nM) 1mM ATP
Reported IC50 by item:

In plain terms, C=CC(=O)N1CC[C@H](Oc2nc(Nc3cc[nH]n3)cc3c2ccn3C(C)C)C1 has a documented IC50 of ≤ 20 nM

More entries:
In plain terms, C=CC(=O)N1C[C@H](F)[C@H](Oc2nc(Nc3cc(F)ccc3C)cc3c2ccn3C)C1 has a documented IC50 of > 500 nM

In plain terms, C=CC(=O)N1CC(C)(Oc2nc(Nc3ncc(C)s3)cc3c2ccn3CCC(C)C)C1 has a documented IC50 of ≤ 20 nM

In plain terms, C=CC(=O)N1CCC2(CCC(Oc3nc(Nc4ncc(C)s4)cc4c3ccn4CC(C)C)C2)C1 (stereo not drawn) has a documented IC50 of > 500 nM

In plain terms, C=CC(=O)N1CC[C@H](Oc2nc(Nc3cc(OC)ncn3)cc3c2ccn3C(C)C)C1 has a documented IC50 of ≤ 20 nM

In plain terms, C=CC(=O)N1CC[C@H]1COc1nc(Nc2ncc(C)s2)cc2c1ccn2C(C)C has a documented IC50 of ≤ 20 nM

In plain terms, C=CC(=O)N1C[C@H](Oc2nc(Nc3ncc(C)s3)cc3c2ccn3CC(C)C)[C@@H](F)C1 has a documented IC50 of > 500 nM

In plain terms, C=CC(=O)N1CC[C@H](Oc2nc(Nc3cc(C)ncn3)cc3c2ccn3C(C)C)C1 has a documented IC50 of ≤ 20 nM

In plain terms, C=CC(=O)N1C[C@H](F)[C@H](Oc2nc(Nc3ncc(C)s3)cc3c2ccn3CC)C1 has a documented IC50 of ≤ 20 nM

In plain terms, C=CC(=O)N1CCC[C@@H]1COc1nc(Nc2ncc(C)s2)cc2c1ccn2C(C)C has a documented IC50 of ≤ 20 nM

In plain terms, C=CC(=O)N1CC(F)(F)C[C@@H]1COc1nc(Nc2ncc(C)s2)cc2c1ccn2C(C)C has a documented IC50 of ≤ 20 nM

In plain terms, C=CC(=O)N1C[C@@H](C)[C@H](Oc2nc(Nc3ncc(C)s3)cc3c2ccn3C(C)C)C1 (racemic) has a documented IC50 of ≤ 20 nM

====

Reported IC50 by item:
Target: ITK (Homo sapiens, UniProt Q08881)
Construct: purchased Signalchem I13-11G-10
Sequence (Q08881 whole entry): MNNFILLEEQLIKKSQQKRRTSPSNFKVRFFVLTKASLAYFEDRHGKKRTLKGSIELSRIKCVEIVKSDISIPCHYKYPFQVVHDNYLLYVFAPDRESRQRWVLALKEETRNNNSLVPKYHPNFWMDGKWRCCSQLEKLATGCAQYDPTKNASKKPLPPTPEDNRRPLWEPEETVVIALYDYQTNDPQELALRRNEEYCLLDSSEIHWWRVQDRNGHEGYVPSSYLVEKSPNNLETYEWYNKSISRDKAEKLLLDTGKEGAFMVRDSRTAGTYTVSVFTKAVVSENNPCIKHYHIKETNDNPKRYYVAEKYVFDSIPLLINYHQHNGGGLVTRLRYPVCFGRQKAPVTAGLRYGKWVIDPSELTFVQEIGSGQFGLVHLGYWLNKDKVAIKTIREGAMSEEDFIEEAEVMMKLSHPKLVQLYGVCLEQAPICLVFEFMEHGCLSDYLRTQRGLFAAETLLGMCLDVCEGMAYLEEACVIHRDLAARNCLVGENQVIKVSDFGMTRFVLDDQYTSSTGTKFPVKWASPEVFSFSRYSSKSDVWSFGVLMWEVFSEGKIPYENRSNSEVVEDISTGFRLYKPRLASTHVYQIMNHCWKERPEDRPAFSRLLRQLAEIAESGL
Experiment: Inhibitory activity against ITK, ADP-Glo Kinase system (Promega)
Type: biochemical
Details: Km ATP (ITK: 25uM); read-out: ITK IC50(nM) Km ATP
Protocol: Inhibitory activities against BTK and ITK were measured for the compounds prepared in the above Examples as follows. The inhibitory activities against BTK and ITK were evaluated using 'ADP-Glo™ Kinase system' (Promega Corporation). In the case of this evaluation method, activation was measured by quantifying the amount of ADP produced during the kinase reaction, which was utilized to measure the inhibitory activities against BTK and ITK. […]

Use the examples below as a reference point.
In plain terms, C=CC(=O)N1CC=C(c2nc(Nc3ncc(C)s3)cc3c2ccn3CC2CCC2)CC1 has a documented IC50 of ≤ 20 nM

In plain terms, C=CC(=O)N1CC=C(c2nc(Nc3ncc(C)s3)cc3c2ccn3CC(C)C)CC1 has a documented IC50 of ≤ 20 nM

In plain terms, C=CC(=O)N1CC=C(c2nc(Nc3ncc(C)s3)cc3c2ccn3C(F)F)CC1 has a documented IC50 of ≤ 20 nM

In plain terms, C=CC(=O)Nc1cc(-c2nc(Nc3ncc(C)s3)cc3c2ccn3CC(F)F)ccc1C has a documented IC50 of ≤ 20 nM

In plain terms, C=CC(=O)Nc1cc(-c2nc(Nc3ncc(C)s3)cc3c2ccn3CC(F)F)ccc1F has a documented IC50 of 20 to 100 nM

In plain terms, C=CC(=O)N1CC[C@H](Oc2nc(Nc3ncc(C)s3)cc3c2ccn3C(C)C)C1 has a documented IC50 of ≤ 20 nM

Consider the additional compound presented here.
In plain terms, C=CC(=O)N1CCC=C(c2nc(Nc3ncc(C)s3)cc3c2ccn3C(C)(C)C#N)C1 has a documented IC50 of ≤ 20 nM

====

Reported IC50 by item:
target: BTK (Homo sapiens, UniProt Q06187); construct: purchased Signalchem B10-10H; experiment: Inhibitory activity against BTK, ADP-Glo Kinase system (Promega); type: biochemical; conditions: 1mM ATP; read-out: BTK IC50(nM) 1mM ATP
Sequence (Q06187 whole entry): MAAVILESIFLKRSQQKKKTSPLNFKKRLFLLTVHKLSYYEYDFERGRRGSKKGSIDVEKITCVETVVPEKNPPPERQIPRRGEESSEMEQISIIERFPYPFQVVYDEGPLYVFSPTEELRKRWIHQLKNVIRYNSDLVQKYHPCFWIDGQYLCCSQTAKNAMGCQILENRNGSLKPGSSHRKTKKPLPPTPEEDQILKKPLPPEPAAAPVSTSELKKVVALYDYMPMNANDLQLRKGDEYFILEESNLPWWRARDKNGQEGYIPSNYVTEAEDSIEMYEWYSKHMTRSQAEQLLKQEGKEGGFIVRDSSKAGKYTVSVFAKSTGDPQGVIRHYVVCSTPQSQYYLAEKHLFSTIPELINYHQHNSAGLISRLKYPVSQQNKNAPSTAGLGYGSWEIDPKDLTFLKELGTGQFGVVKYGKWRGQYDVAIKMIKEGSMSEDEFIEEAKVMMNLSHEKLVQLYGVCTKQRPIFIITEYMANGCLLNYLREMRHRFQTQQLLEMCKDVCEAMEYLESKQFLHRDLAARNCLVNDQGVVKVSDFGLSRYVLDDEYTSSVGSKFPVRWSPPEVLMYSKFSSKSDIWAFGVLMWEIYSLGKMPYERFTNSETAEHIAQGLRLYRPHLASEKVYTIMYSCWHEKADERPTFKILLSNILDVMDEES

Use the examples below as a reference point.
In plain terms, C=CC(=O)N1CCC2(CC(Oc3nc(Nc4ncc(C)s4)cc4c3ccn4CC(C)C)C2)C1 (stereo not shown) has a documented IC50 of 100 to 500 nM

In plain terms, C=CC(=O)Nc1cccc(-c2nc(Nc3ncc(C)s3)cc3c2ccn3C(C)C)c1C has a documented IC50 of ≤ 20 nM

In plain terms, C#CC(=O)N1C[C@H](F)[C@H](Oc2nc(Nc3ncc(C)s3)cc3c2ccn3CC(C)C)C1 has a documented IC50 of ≤ 20 nM

In plain terms, C=CC(=O)N1CC(C)(Oc2nc(Nc3ncc(C)s3)cc3c2ccn3CC)C1 has a documented IC50 of ≤ 20 nM

In plain terms, C=CC(=O)N1C[C@H](F)[C@H](Oc2nc(Nc3ncc(C)s3)cc3c2ccn3CC(C)(C)O)C1 has a documented IC50 of ≤ 20 nM

In plain terms, C#CC(=O)N1CC[C@H](Oc2nc(Nc3ncc(C)s3)cc3c2ccn3CC(C)C)C1 has a documented IC50 of ≤ 20 nM

In plain terms, C=CC(=O)N1CCC[C@H](COc2nc(Nc3ncc(C)s3)cc3c2ccn3CC(C)C)C1 has a documented IC50 of ≤ 20 nM

In plain terms, C=CC(=O)N1C2C=C(c3nc(Nc4ncc(C)s4)cc4c3ccn4CC3(C(F)(F)F)CC3)CC1CC2 (stereo not shown) has a documented IC50 of ≤ 20 nM

In plain terms, C=CC(=O)N1CCC[C@H](Oc2nc(Nc3ncc(C)s3)cc3c2ccn3C)C1 has a documented IC50 of ≤ 20 nM

In plain terms, C=CC(=O)N1C[C@H](F)[C@H](Oc2nc(Nc3ncc(C)s3)cc3c2ccn3[C@@H](C)CC)C1 has a documented IC50 of ≤ 20 nM

More entries:
In plain terms, C=CC(=O)N1CC=C(c2nc(Nc3ncc(C)s3)cc3c2ccn3C(C)C)CC1 has a documented IC50 of 20 to 100 nM

In plain terms, C=CC(=O)N1C2C=C(c3nc(Nc4ncc(C)s4)cc4c3ccn4C)CC1CC2 (stereo not shown) has a documented IC50 of ≤ 20 nM

In plain terms, Cc1cnc(Nc2cc3c(ccn3CC(C)C)c(O[C@@H]3CN(C(=O)CCl)C[C@@H]3F)n2)s1 has a documented IC50 of 20 to 100 nM
